As shown below, each of these compounds has a reported pIC50 value.
TGT: Prolyl endopeptidase (Canis familiaris)
METHOD_DESCRIPTION: In vitro inhibitory activity against purified prolyl endopeptidase (PEP) from canine brain.
Worth noting: pIC50 values are minus log10 of concentrations stated in mol/L.

# STRUCTURE_SMILES_STRING, pIC50
records = [
    ("O=C[C@@H]1CSCN1C(=O)[C@@H]1CSCN1C(=O)C[C@H]1CCc2ccccc2C1", 9.07),
]

Then this compound:
Which pIC50 value is on record for CC(C)c1ccc(C(=O)c2cccs2)c(SCCCCCCCCN(C)C)n1 ?
5.46
